Data provenance: ChEMBL document CHEMBL1201862

Tested on: OVCAR-8
Test method notes: NCI tumour cell line growth inhibition, 48 h
Activity calls are given as the source filed them. Cut-off read from the data, not from the text of the source: active = GI50 up to about 1.1 µM and inactive = higher.
Just give me one of these, please: yes = active, no = inactive

Could you please tell me the result logged for "O=C(O)[C@@H]1CCC(=O)N1C(c1ccc2c(c1)OCO2)c1ccc2c(c1)OCO2" in this assay?
no

Just curious, what result did "c1ccc2c(CC3NCCN3)cccc2c1" get here?
no

For this compound, state the assay outcome: "COc1c(C(=O)c2ccc([N+](=O)[O-])cc2)cc(C(C)(C)C)cc1C(C)(C)C"
no

Please state the recorded outcome for this compound: C[C@H]1ON2CCC[C@@H]2[C@@H]1C(=O)N1C2CC3CCC2(CS1(=O)=O)C3(C)C (stereo partly drawn)
no

Called result for Clc1ccc(C2ON=C(c3ccccc3)N2C23CC4CC(CC(C4)C2)C3)c(Cl)c1 (stereo not drawn)
no

Identify the outcome logged in this assay for the compound shown: C[C@@H]1OC(=O)N2CCCC(=C3SCCCS3)C12 (stereo partly drawn)
no

Each compound tested received a call. Report the one for "C=C(C)[C@@H]1C[C@H]2O[C@](O)(C(=C)CC(=O)/C=C(/C)C[C@@H]3OC(=O)[C@]24O[C@@H]34)[C@H]1O" .
no

Identify the outcome logged in this assay for the compound shown: CCN1CN(c2ccccc2)C2(CCN(CC3COc4ccccc4O3)CC2)C1=O (stereo not drawn)
no

Called result for "O=[N+]([O-])c1nccn1CCCNCCCn1ccnc1[N+](=O)[O-]"
no

What outcome does the record of this test show for "CC(=O)N(CCCCNC(=O)C(F)(F)F)CCCNC(=O)C(F)(F)F" ?
no

Please share the test call associated with "CCc1cccc(CC)c1NC(=O)C1=C(C)NC(C)=C(C(=O)Nc2c(CC)cccc2CC)C1c1ccc2c(c1)OCO2" .
no

Query: recorded result category for O=[N+]([O-])c1ccc(C2CC(c3ccccc3Cl)=Nc3ccccc3[S+]2[O-])cc1 (stereo not drawn) in this test
no

For this compound, state the assay outcome: "COc1cccc(C2C(C(=O)Nc3cc(=O)n(C)c(=O)n3C)=C(C)NC(C)=C2C(=O)Nc2cc(=O)n(C)c(=O)n2C)c1O"
no

Could you check what this test reported for "CC(C)OC(=O)c1ccc(NCc2cc(O)ccc2O)cc1" ?
no

Assay outcome for CCCC(O)c1cn(-c2cccc(S(=O)(=O)O)c2)nn1 (stereo not drawn) : what was it?
no

Per the records of this test, what outcome belongs to CCOP(=O)(O)CC1OC(CO)C(O)C1O (stereo not drawn) ?
no

Please let me know the test result on file for "CCOC(=O)c1sc2[n+](c1C)C(=O)/C(=C/c1ccc([N+](=O)[O-])cc1)S2" .
no

Record lookup: outcome of this test for "NC(=O)C(=O)n1ncc(Cl)c(Cl)c1=O" ?
no

Would you mind telling me which call this test gave O=NN(CC1(O)OCC(O)C(O)C1O)C(Cc1c[nH]c2ccccc12)C(=O)O (stereo not drawn) ?
no

# lookup: test call for "CCCCCC/C(CC(=O)CCC(=O)NCCc1ccccc1)=N\Nc1ccc([N+](=O)[O-])cc1[N+](=O)[O-]"
no

Which outcome did this test record for the compound "CCC1=[N+](CC)CCN1CC" ?
no

Could you kindly confirm the outcome this assay logged for "COc1ccc(-c2nc3c(nc2-c2ccc(OC)cc2)N(C)S(=O)(=O)N=C3N)cc1" ?
no

Recorded test call requested for C#CC1(O)C(COP(=O)(O)OCC2OC(n3ccc(NCCCCCCCCCCCCCCCCCC)nc3=O)C(O)C2O)OC(n2ccc(N)nc2=O)C1O (stereo not drawn)
yes

How did this test come out for Cc1cc2c(cc1C)NC(=O)C(NC(=O)/C=C/c1ccccc1)C=N2 (stereo not drawn) ?
no

Recorded test call requested for "CCCCCCCCCCCCCCCCCCNC(=S)NC=C1C(=O)c2ccccc2C1=O"
no

Would you mind telling me which call this test gave "Cc1cc2c(cc1Cl)Sc1nnc(Nc3ccccc3)n1S2(=O)=O" ?
no

Hello, I am checking results. What call was entered for "CN(C)c1ccc2c(NCCCCCCNc3ccnc4cc(N(C)C)ccc34)ccnc2c1" ?
no

What classification did "CSc1ccc(/C=C2\N=C(c3ccccc3)N(c3nc4ccc(Sc5ccccc5)cc4[nH]3)C2=O)cc1" end up with in this test?
no

Short answer needed: outcome of this test for Cc1cccc2c1CC(C1OC(=O)c3c(C)cccc31)C2=O (stereo not drawn) ?
no

Lab log entry: O=[N+]([O-])c1ccc2c(c1)nc(Cc1ccc(Cl)cc1)n2C[C@@H]1CCCN2CCCCC12 (stereo partly drawn) — outcome as called in the assay?
no

For this compound, state the assay outcome: "O=C1Nc2ccccc2/C1=N/Nc1nc(-c2ccc([N+](=O)[O-])cc2)cs1"
no

Record lookup: outcome of this test for CC(Nc1ncc2c(n1)-c1ccccc1OC2)C(=O)O (stereo not drawn) ?
no

Assay outcome for "CCOC(=O)c1nc2cc(F)c(N3CCOCC3)cc2[nH]c1=O" : what was it?
no

----------
Tested on: SW-620
Test method notes: NCI tumour cell line growth inhibition, 48 h
Active and inactive are the calls of the source. Cut-off read from the data, not from the text of the source: active = GI50 up to about 1.1 µM and inactive = higher. Starred links: 1 amine or outer side, 2 acyl side, 3 side chain; linkers in the order of their positions; H or OH if unused. Positions of bridges follow the written chain, without caps; N, C: chain ends. Non-standard residues stand in square brackets, D forms with d. Residues, ends and D or L forms follow the SMILES beside them. *: point of attachment. X40 = CC[C@H](C)[C@@H](N[*:1])[C@@H](O)CC(=O)[*:2]; NMeY = CN[C@@H](Cc1ccc(O)cc1)C(=O)O; dNMeL = CN[C@H](CC(C)C)C(=O)O; Hiv = CC(C)[C@H](O)C(=O)O; Pyruvoyl = CC(=O)C(=O)*
Reported metric: GI50

Need GI50 of CC[C@H](C)[C@H]1NC(=O)[C@@H](NC(=O)[C@@H](CC(C)C)N(C)C(=O)[C@@H]2CCCN2C(=O)C(C)=O)[C@@H](C)OC(=O)[C@H](Cc2ccc(OC)cc2)N(C)C(=O)[C@@H]2CCCN2C(=O)[C@H](CC(C)C)NC(=O)[C@H](C(C)C)OC(=O)C[C@@H]1O (Pyruvoyl-P[dNMeL]T[X40][Hiv]LP[NMeY](Me); ester 3-C) , thanks.
0.00505 µM (active)

Requested field: GI50. Item: "CCOC(=O)C(Cc1c2ccccc2cc2ccccc12)(NC(C)=O)C(=O)OCC"
> 79.8 µM (inactive)

Reported GI50 for COC1=CC(C2c3cc4c(cc3[C@@H](Nc3ccc(F)cc3)C3COC(=O)[C@H]23)OCO4)=CC(=O)C1=O (some centres undefined) : what is it?
12.7 µM (inactive)

Returns the measured GI50 for the input molecule. Input: COc1cc(OC)c(C2CC=Cc3c(OC)cc(OC)c(OC)c32)cc1OC (centres undefined)
> 100 µM (inactive)

----------
Tested on: RPMI-8226
Test method notes: NCI tumour cell line growth inhibition, 48 h
Activity calls are given as the source filed them. No stated cut-off is given here; in the data, active = GI50 up to about 1.1 µM and inactive = higher.
I'd appreciate it if you could supply GI50 values for the items below.

Record request: GI50 value, item "CCCCCCCCCCCCCCCCCCNC(=S)NC=C1C(=O)c2ccccc2C1=O"
14.2 µM (inactive)

I'd like to know its GI50. The compound in question is C[N+](C)(C)CC(=O)N/N=C(/C=C/c1ccccc1)CC1OC(=O)c2ccccc21 (centres undefined)
> 100 µM (inactive)

Which GI50 is listed for "CCOc1ccc(/N=N/c2ccc3oc(=O)c(/C(C)=N/NC(=O)CC(=O)Nc4cccc(OC)c4)cc3c2)cc1" ?
8.53 µM (inactive)

Return reported GI50; argument: NC(Cc1ccccc1)C(=O)NC(Cc1ccccc1)NC(=O)C(Cc1c[nH]c2ccccc12)C(=O)O (centres undefined)
> 100 µM (inactive)

May I ask what GI50 has been recorded for "O=C1/C(=C/C=C/c2ccccc2)N=C(c2ccccc2)N1c1ccc(S(=O)(=O)Nc2nccs2)cc1" ?
21.9 µM (inactive)

Query (compound): O=c1c2cc(Br)ccc2nc(-c2ccccc2Cl)n1NCC1(O)OCC(O)C(O)C1O (centres undefined) ; field requested: GI50
99.1 µM (inactive)

What value of measured GI50 is listed for CCN1CN(c2ccccc2)C2(CCN(CC3COc4ccccc4O3)CC2)C1=O (centres undefined) ?
17.4 µM (inactive)

Requested read-out: GI50. Entry: C[C@]12CCNC(=O)C=C1CC[C@@H]1C2CC[C@@]2(C)C1CC[C@@H]2OC(=O)COc1ccc(N(CCCl)CCCl)cc1 (some centres undefined)
4.65 µM (inactive)

Which value of GI50 has been reported for CC(=O)C(C(=O)c1ccc(C)cc1)[C@H]1OC(C)(C)O[C@H]1[C@H]1COC(C)(C)O1 (some centres undefined) in the records?
1.6 µM (inactive)

----------
Test system: NCI-H23
Test method notes: NCI tumour cell line growth inhibition, 48 h
Calls of active or inactive are those of the source. No stated cut-off is given here; in the data, active = GI50 up to about 1.1 µM and inactive = higher.
Reported metric: GI50

What GI50 value was documented for this compound, "CC(C)/C(Cl)=N\OC(=O)Nc1cccc(F)c1" ?
15.9 µM (inactive)

Form field: reported GI50 of C/C(=N/Nc1ccc([N+](=O)[O-])cc1[N+](=O)[O-])C(CC(C(=O)Nc1ccccc1C)/C(C)=N\Nc1ccc([N+](=O)[O-])cc1[N+](=O)[O-])C(=O)Nc1ccccc1C (centres undefined)
11.3 µM (inactive)

Return reported GI50; argument: COc1ccc(C(O)CNC(=O)c2ccccc2)cc1 (centres undefined)
> 100 µM (inactive)

# get_value(readout='GI50', item= N#Cc1ccccc1NC(=O)C(=O)C(C(=O)c1ccncc1)C1OC(=O)c2ccccc21 (centres undefined) )
> 100 µM (inactive)

Requested read-out: GI50. Entry: "c1ccc2c(c1)Sc1nccc3ccnc-2c13"
36.8 µM (inactive)

GI50 lookup needed for "CC[C@@]1(O)C(=O)OCc2c1c(Cl)c1n(c2=O)Cc2cc3ccccc3nc2-1" , thanks.
2.05 µM (inactive)

Query (compound): CC(C)(C)OC(=O)NCCCCC(N)C(N)=O (centres undefined) ; field requested: GI50
> 100 µM (inactive)

Requested read-out: GI50. Entry: COC(=O)/C(C#N)=C1\CCC(C(=O)OC)N1C (centres undefined)
> 100 µM (inactive)

// returns reported GI50 for input O=C1OC(C2Cc3cc4c(cc3C2=O)CCC4)c2ccccc21 (centres undefined)
47.1 µM (inactive)

Query (compound): Clc1ccc(C2ON=C(c3ccccc3)N2C23CC4CC(CC(C4)C2)C3)c(Cl)c1 (centres undefined) ; field requested: GI50
> 10 µM (inactive)

Bench note: what GI50 did COC(=O)C1=C(C)C(=O)[C@H]2C(C(=O)OC)CCCC[C@@H]12 (some centres undefined) show?
> 100 µM (inactive)

Can you share its GI50? I mean this compound: c1ccc(C2=NNC3c4ccccc4-c4ccccc4N3C2)cc1 (centres undefined)
26.1 µM (inactive)

GI50 lookup needed for C/C=C\C(CC(=O)NCCc1c[nH]c2ccccc12)CC(=O)OC (centres undefined) , thanks.
> 100 µM (inactive)

May I ask what GI50 has been recorded for Cc1ccccc1C(C#N)/C(=N/NC(=O)c1cc2ccccc2cc1O)C(=O)Nc1cccc(Cl)c1 (centres undefined) ?
12.4 µM (inactive)

What value of GI50 has been recorded for this entry: "C/C(=N\NC(=O)c1ccncc1)c1cccc(F)c1"
> 10 µM (inactive)

Give the measured GI50 of "c1ccc2c(c1)CCN2CCN1CCc2ccccc21" .
> 10 µM (inactive)

Would you kindly share the measured GI50 for Cc1cccc(N2C(=O)C(=O)C(c3nc4ccccc4s3)/C(=N/NC(=S)NN)C2=O)c1C (centres undefined) ?
> 100 µM (inactive)

Would you kindly share the measured GI50 for "CC(=O)/C(=C/n1c(=S)sc2ccccc21)C(=O)Nc1ccccc1C" ?
> 100 µM (inactive)

Request the reported GI50 associated with "NC(=O)C(=O)n1ncc(Cl)c(Cl)c1=O"
32.7 µM (inactive)

Reported GI50 for "CN1c2ccccc2C(=O)Nc2cnc(Cl)nc21" : what is it?
> 100 µM (inactive)

What value of GI50 has been reported for the following compound? "O=C1CSC(/C(=C/c2ccccc2)c2nc3ccccc3[nH]2)=N1"
28.1 µM (inactive)

What measured GI50 goes with CCOC(=O)C(=O)C(/C(=N/N(C)C)C(=O)Nc1ccc(C)cc1C)c1nc2ccccc2nc1O (centres undefined) ?
> 100 µM (inactive)

// lookup GI50 for "c1ccc2c(NCCCCCCCCNc3cccc4ccccc34)cccc2c1"
25.3 µM (inactive)

Given "Cc1ccc2c3c1O[C@H]1c4[nH]c5ccccc5c4C[C@@]4(O)[C@@H](C2)N(CC2CC2)CC[C@]314" , state its recorded GI50.
19.7 µM (inactive)

# input compound: "O=C1C=C/C(=N/c2cccc3c(/N=C4/C=CC(=O)O4)cccc23)O1" ; wanted: its GI50
50.4 µM (inactive)

Give its GI50 value. Item: "Cc1cc2nc(C#N)c(N3CCN(c4ccc([N+](=O)[O-])cc4)CC3)nc2cc1C"
> 64.9 µM (inactive)

Requested read-out: GI50. Entry: COC(=O)[C@]1(c2cc3ccccc3[nH]2)CC2CNC1C1OC(C)(C)OC21 (some centres undefined)
> 100 µM (inactive)

Value lookup for GI50; key = O=C1CC(c2ccccc2)NCCCCN2CC(CN1)C(C(O)c1ccccc1)C2=O (centres undefined)
> 100 µM (inactive)

Would you mind telling me what GI50 value was observed for "C[Si](C)(c1ccccc1)C1CC(=O)CC(=O)C1" ?
> 100 µM (inactive)

Can you share its GI50? I mean this compound: "O=c1c(-c2ccccc2)c2oc(c1-c1ccccc1)CSCc1cccc(c1)CSC2"
> 100 µM (inactive)

Using the record for COC(=O)N1CC2(CO)C3CC=C(C(=O)Nc4ccccc4Br)C2C1C3Br (centres undefined) , report its GI50.
> 50 µM (inactive)

Recorded GI50 of CN(C)C(=O)Oc1ccc[n+](C)c1 [PYRIDOSTIGMINE BROMIDE] , please.
> 100 µM (inactive)

What value of GI50 has been recorded for this entry: "O=c1[nH]nc(Cc2ccc(Cl)cc2)n1/N=C/c1ccco1"
34.8 µM (inactive)

Form field: reported GI50 of C=C1C(=O)OC2C1C(=O)C/C(C)=C/CCC1(C)OC21 (centres undefined)
19.5 µM (inactive)
